The origin of these recorded values is ChEMBL document CHEMBL3988442.

# target.system: Aspartate--tRNA(Asp/Asn) ligase (Mycobacterium tuberculosis (strain ATCC 25618 / H37Rv)) (UniProt P9WFW3)
# Sequence (P9WFW3 whole entry): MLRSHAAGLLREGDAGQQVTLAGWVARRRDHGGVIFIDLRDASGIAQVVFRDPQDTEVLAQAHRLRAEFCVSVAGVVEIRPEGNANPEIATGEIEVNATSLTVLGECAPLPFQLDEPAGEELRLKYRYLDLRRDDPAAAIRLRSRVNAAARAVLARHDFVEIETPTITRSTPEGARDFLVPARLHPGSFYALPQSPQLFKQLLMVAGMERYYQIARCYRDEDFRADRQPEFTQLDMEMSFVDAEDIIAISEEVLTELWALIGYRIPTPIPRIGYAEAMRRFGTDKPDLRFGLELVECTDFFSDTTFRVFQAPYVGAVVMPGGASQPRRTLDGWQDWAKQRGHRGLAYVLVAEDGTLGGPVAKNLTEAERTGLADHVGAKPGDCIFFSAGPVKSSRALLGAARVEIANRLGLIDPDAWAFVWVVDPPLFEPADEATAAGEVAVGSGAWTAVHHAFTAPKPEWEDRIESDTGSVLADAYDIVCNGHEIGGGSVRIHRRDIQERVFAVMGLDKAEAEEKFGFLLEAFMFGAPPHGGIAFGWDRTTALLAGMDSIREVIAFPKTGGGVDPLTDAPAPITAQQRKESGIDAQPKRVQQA
# measurement.protocol: Assay for Asp RNA synthetase-1 from Mycobacterium tuberculosis
# Type: functional
# Set-up: scale not given: in the data most compounds retested in dose-response had high values
# experimental.parameters: 30 µM

# molecule, Percent Effect
records = [
    ("Cc1nc(CNCC2CCCN2c2cccnn2)cs1 (stereo unspecified)", "-0.7%"),
    ("COCCN1C(=O)C[C@@H]2[C@H]1CCN2C(=O)COc1ccccc1", "-2.36%"),
    ("Cc1cnc(CNc2c(F)cccc2-n2cccn2)o1", "-2.01%"),
    ("O=C(NC[C@]1(O)CN(Cc2ccccc2F)C[C@H]1O)c1ccccn1", "7.9%"),
    ("O=C(Cc1ccc2c(c1)CCC2)NCCNc1ncccn1", "-1.71%"),
    ("CSCc1cccc(S(=O)(=O)NCCCO)c1", "13.1%"),
]

---

# target.system: Aspartate--tRNA(Asp/Asn) ligase (Mycobacterium tuberculosis (strain ATCC 25618 / H37Rv)) (UniProt P9WFW3)
# measurement.protocol: Assay for Asp RNA synthetase-1 from Mycobacterium tuberculosis
# Type: functional
# Parameters: scale not given: in the data most compounds retested in dose-response had high values
# experimental.parameters: 30 µM
assay.endpoint: Percent Effect (%)

# compound, assay.endpoint, unit.annotation, reported.measurement
rows = [
    ("c1csc(CN2CCO[C@H]3[C@H](OCCN4CCCC4)CC[C@@H]32)n1", "Percent Effect", "%", 2.94),
    ("COC1COC2(CCN(Cc3ccccc3Cl)CC2)C1 (stereo unspecified)", "Percent Effect", "%", 3.77),
    ("O=C(CCC1CC1)N1C[C@@H](CN2CCCC2)[C@@H](CO)C1", "Percent Effect", "%", 0.505),
    ("C[S+]([O-])c1nncn1CC(=O)c1cccc(Cl)c1 (stereo unspecified)", "Percent Effect", "%", -0.917),
    ("Cc1nc(CN(C)C2CCCN(c3cccnn3)C2)no1 (stereo unspecified)", "Percent Effect", "%", -6.37),
    ("Fc1cnc(N2CCO[C@H]3CN(CC4CCC4)C[C@H]32)nc1", "Percent Effect", "%", -2.5),
    ("Cc1cc(C)n(CC2CCCCN2CC(=O)Nc2nncs2)n1 (stereo unspecified)", "Percent Effect", "%", -0.218),
    ("Cn1nc(COc2cccnc2)c2c1CCN(c1cnccn1)C2", "Percent Effect", "%", 10.9),
    ("Cc1ccoc1C(=O)N1CC[C@H]2OCC[C@@]2(COCc2ccncc2)C1", "Percent Effect", "%", 3.13),
    ("O=C(c1ccoc1)N1CC[C@@H]2O[C@H](COCc3ccccn3)CC[C@@H]21", "Percent Effect", "%", 1.36),
    ("CC(C)OCc1ccc(CNC(=O)CC(F)(F)F)cc1", "Percent Effect", "%", -1.66),
]

---

# target.system: Aspartate--tRNA(Asp/Asn) ligase (Mycobacterium tuberculosis (strain ATCC 25618 / H37Rv)) (UniProt P9WFW3)
# measurement.protocol: Assay for Asp RNA synthetase-1 from Mycobacterium tuberculosis
# Format: functional
# Design: scale not given: in the data most compounds retested in dose-response had high values
# experimental.parameters: 30 µM
# Percent Effect per record follows
assay.endpoint: Percent Effect (%)

# compound, assay.endpoint, unit.annotation, reported.measurement
records = [
    ("CCn1ncc(Br)c1CN(C)S(=O)(=O)c1ccc(C)cc1", "Percent Effect", "%", 0.0735),
    ("CC(C)CCCNC(=O)Nc1ccc(F)c(C(N)=O)c1", "Percent Effect", "%", -3.06),
    ("CCc1c(C(=O)N2CCN(c3ncccn3)CC2)cnn1C(C)(C)C", "Percent Effect", "%", 3.62),
    ("COc1ccc(NC(=O)Cn2nc(C)c(C)cc2=O)cc1OC", "Percent Effect", "%", -0.123),
    ("Cc1cc(OCC(=O)NC(C)c2ccc(N3CCOCC3)cc2)no1 (stereo unspecified)", "Percent Effect", "%", 5.44),
    ("c1ncn(CC2CCCN(Cc3nc(C4CC4)no3)C2)n1 (stereo unspecified)", "Percent Effect", "%", -2.51),
]
